molecular target: PRKX (human); experiment: split-luciferase competition binding; conditions: compound 10.0 µM
MEASURED_ENDPOINT: inhibition (%)

INSERT INTO assay_data (compound, measured_endpoint, reported_measurement) VALUES
  ('NC(=O)Nc1sc(-c2ccc(F)cc2)cc1C(N)=O', 'inhibition', 9),
  ('Nc1ncnc2[nH]nc(Nc3ccc(F)cc3)c12', 'inhibition', 24),
  ('CN(C)CCCn1cc(C2=C(c3c[nH]c4ccccc34)C(=O)NC2=O)c2ccccc21', 'inhibition', 10);

(I) Oc1ccc(-c2nc(-c3ccc(F)cc3)c(-c3ccncc3)[nH]2)cc1
(II) O=C(NC(NC(=S)Nc1ccc(F)c([N+](=O)[O-])c1)C(Cl)(Cl)Cl)C(c1ccccc1)c1ccccc1 (stereo not given)
QUERY: Would you kindly point out which of I and II has the smaller inhibition figure? API: response body contains the label of the selected item.
RESULT: II
